# Experimental System: Mouse ACVR2A (mouse, UniProt P27038 20-135, limits assumed); note: test concentration or dose not given here
# Sequence (P27038 20-135 limits assumed): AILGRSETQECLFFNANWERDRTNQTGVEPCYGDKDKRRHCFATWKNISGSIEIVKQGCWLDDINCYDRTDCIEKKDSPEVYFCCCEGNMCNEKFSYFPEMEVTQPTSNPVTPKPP
# Method Notes: ELISA
Attribute Measured: optical density (OD)
Answers are plain numbers, in OD.

Worked set:
| Binder | Experimental Value |
| --- | --- |
| 374_D08 (antibody, V domains shown) VH: EVQLLESGGGLVQPGGSLRLSCAASGFTFDSYGMNWVRQAPGKGLEWVSGINYNSGYTGYADSVKGRFTISRDNSKNTLYLQMNSLRAEDTAVYYCARSANWHDTHLDYWGQGTLVTVSS VL: DIQMTQSPSSLSASVGDRVTITCRASQSILTYLNWYQQKPGKAPKLLIYAATSRHSGVPSRFSGSGSGTDFTLTISSLQPEDFATYYCQQSYESPLTFGGGTKVEIK | 3.59 |
| 369_A02 (antibody, V domains shown) VH: EVQLLESGGGLVQPGGSLRLSCAASGFTFSSYSMNWVRQAPGKGLEWVAGINYNSGYTGYADSVKGRFTISRDNSKNTLYLQMNSLRAEDTAVYYCARSANWHDTHLDYWGQGTLVTVSS VL: DIQMTQSPSSLSASVGDRVTITCRASQSILSYVNWYQQKPGKAPKLLIYAATSRASGVPSRFSGSGSGTDFTLTISSLQPEDFATYYCQQSYDLPLTFGGGTKVEIK | 3.46 |
| 373_A02 (antibody, V domains shown) VH: EVQLLESGGGLVQPGGSLRLSCAASGFTFDSYGMNWVRQAPGKGLEWVSGINYNGGYKGYADSVKGRFTISRDNSKNTLYLQMNSLRAEDTAVYYCARSANWHDTALDYWGQGTLVTVSS VL: DIQMTQSPSSLSASVGDRVTITCRASQSILSYVNWYQQKPGKAPKLVIYATTSLASGVPSRFSGSGSGTDFTLTISSLQPEDFATYYCQQSYNTPLTFGGGTKVEIK | 2.97 |
| 371_A03 (antibody, V domains shown) VH: EVQLLESGGGLVQPGGSLRLSCAASGFTFSDYGMNWVRQAPGKGLEWVANINYNGGYTGYADSVKGRFTISRDNSKNTLYLQMNSLRAEDTAVYYCARSANWHDTALDYWGQGTLVTVSS VL: DIQMTQSPSSLSASVGDRVTITCRASQSILSYLNWYQQKPGKAPKLVIYATTSRASGVPSRFSGSGSGTDFTLTISSLQPEDFATYYCQQSYESPLTFGGGTKVEIK | 2.62 |

Turning to the following binder.
Prompt line: Give its optical density value. Item: 373_B06 (antibody, V domains shown) VH: EVQLLESGGGLVQPGGSLRLSCAASGFTFSDYSMNWVRQAPGKGLEWVAGINYNGGYTGYADSVKGRFTISRDNSKNTLYLQMNSLRAEDTAVYYCARSANWHDTALDYWGQGTLVTVSS VL: DIQMTQSPSSLSASVGDRVTITCRASQSILTYVNWYQQKPGKAPKLVIYAATSRHSGVPSRFSGSGSGTDFTLTISSLQPEDFATYYCQQSYESPLTFGGGTKVEIK
Response line: 3.43

Attribution: patent US20210380703A1
